Source of measurements: PubChem BioAssay (NCI)

quantity_name: GI50

Exercise: Hello, I am looking for reported GI50 with PC-3 prostate for COc1cc2c3c(n(CCCNCCN)c(=O)c2cc1OC)-c1cc2c(cc1C3=O)OCO2 . Could you help?
Solution: 2.13 µM

Exercise: Request body: readout GI50, system PC-3 prostate, query CC(=O)[C@@H]1CCC=C2CC[C@]3(C)[C@@H](CC[C@@H]4[C@@]5(C)CCCNC(C)(C)[C@@H]5CC[C@]43C)[C@H]21 . Return the value.
Solution: 1.65 µM

Exercise: Recall the recorded GI50 for N#Cc1cnc2cc(OC[C@@H](O)CO)c(NC(=O)CC3CSSC3)cc2c1Nc1ccc(OCc2cccc(F)c2)c(Cl)c1 with PC-3 prostate and state it.
Solution: 0.0888 µM

Exercise: Please tell me: GI50 of ClC(Cl)c1nc(-c2cccnc2)n2nc(-c3ccccc3)cc2n1 , system PC-3 prostate?
Solution: 1.71 µM

Exercise: For PC-3 prostate, provide GI50 of COCCOC(=O)NC(=O)Nc1ccc(/C(=N/O)c2ccc(Cl)cc2)cc1 please.
Solution: 0.141 µM

Exercise: Look up GI50 with PC-3 prostate for this molecule: O=C(Nc1ccc(F)cc1)c1c(NC(=O)C(F)(F)F)sc2c1CCCCC2
Solution: 1.59 µM

Exercise: What GI50 appears in the records for this molecule with PC-3 prostate? O=S(=O)(NCC1CCC(CNc2ccc(Cl)cc2)CC1)c1ccc(-c2ccccc2)cc1 (centres undefined)
Solution: 40.9 µM

Exercise: GET /values?readout=GI50&system=PC-3 prostate&item= N=C(N=C(N)N)N1CCN(c2ccncc2)CC1
Solution: > 1000 µM

Exercise: Param readout= GI50; system= PC-3 prostate; entry= Cc1nc2ccc(Nc3nc(NCCN4CCOCC4)nc(Nc4ccc(F)cc4)n3)cc2n1Cc1ccccc1 ; returns value.
Solution: 3.26 µM

Exercise: Recall the recorded GI50 for CC(C)c1ccc(C(=O)Nc2sc3c(c2C#N)CCC(=O)C3)cc1 with PC-3 prostate and state it.
Solution: 0.263 µM

Exercise: What measured GI50 is associated with N#Cc1c(-c2ccccc2)cc(-c2ccc(Nc3nc(Nc4ccc(Cl)cc4)nc(Nc4ccc(Cl)cc4)n3)cc2)nc1N on PC-3 prostate?
Solution: 1.89 µM

Exercise: Give GI50 (PC-3 prostate) of the following molecule: Cn1ncc2c(N)nc(N3CCCCC3)nc21
Solution: 33.5 µM

Exercise: Look up GI50 with PC-3 prostate for this molecule: O=[N+]([O-])c1ccc(N/N=C/c2c(O)ccc3ccccc23)nc1
Solution: 48.7 µM

Exercise: Kindly state the measured GI50 obtained for CC1=C[C@H]2c3c(c(O)c(O)c4oc5ccccc5c(=O)c34)[C@H](c3cc(O)c(O)c4oc5ccccc5c(=O)c34)[C@H]2C(C)(C)C1 with PC-3 prostate.
Solution: 1.1 µM

###

# Tested on: DU-145 prostate
Entry note: the call must match one of class 1 for active, class 0 for inactive

Exercise: // param item: CC/C=C\C[C@H](O)C/C=C1/C(=O)C=C[C@@H]1C/C=C\CCCC(=O)N(C)C ; yields the recorded call
Solution: class 0

Exercise: For this compound, state the assay outcome: CCCCCCCCCCN(CCCCCCCCCC)CC(=O)c1ccc2cc(Br)c3ccccc3c2c1
Solution: class 0

Exercise: Could you check what this test reported for N#Cc1cnc2cc(OC[C@@H](O)CO)c(NC(=O)CC3CSSC3)cc2c1Nc1ccc(OCc2cccc(F)c2)c(Cl)c1 ?
Solution: class 1

Exercise: Please let me know the test result on file for COCCOC(=O)NC(=O)Nc1ccc(/C(=N/O)c2ccc(Cl)cc2)cc1 .
Solution: class 1

Exercise: Hello, I am checking results. What call was entered for N#Cc1c(-c2ccccc2)cc(-c2ccc(Nc3nc(Nc4ccc(Cl)cc4)nc(Nc4ccc(Cl)cc4)n3)cc2)nc1N ?
Solution: class 0

Exercise: // return assay outcome for O=S(=O)(NCC1CCC(CNc2ccc(Cl)cc2)CC1)c1ccc(-c2ccccc2)cc1 (centres undefined)
Solution: class 0

Exercise: Which outcome was entered for the compound CC(C)=CC(=O)O[C@H]1C(=O)O[C@@H]2C[C@H]3[C@H](C)C(=O)C(O[C@@H]4O[C@H](CO)[C@@H](O)[C@H](O)[C@H]4O)=C[C@]3(C)[C@H]3[C@@H](O)[C@H](O)[C@]4(C(=O)O)OC[C@]32[C@@H]14 in this test?
Solution: class 0

Exercise: Outcome logged for O=C(Nc1ccc(F)cc1)c1c(NC(=O)C(F)(F)F)sc2c1CCCCC2 in this assay:
Solution: class 0

Exercise: Recorded test outcome, item CC[C@@]1(O)C(=O)NCc2c1cc1n(c2=O)Cc2cc3c(N)cccc3nc2-1
Solution: class 0

Exercise: Could you check what this test reported for C#CC1(O)C(COP(=O)(O)OC2CC(n3cc(F)c(=O)[nH]c3=O)OC2CO)OC(n2ccc(N)nc2=O)C1O (centres undefined) ?
Solution: class 1

Exercise: Hi, do you know how CC(=O)[C@@H]1CCC=C2CC[C@]3(C)[C@@H](CC[C@@H]4[C@@]5(C)CCCNC(C)(C)[C@@H]5CC[C@]43C)[C@H]21 came out in this test?
Solution: class 0

Exercise: I'd appreciate the recorded outcome for OCC1OC(n2ccc3c(NO)ncnc32)C(O)C1O (centres undefined) from this test.
Solution: class 1

Exercise: Just curious, what result did Cc1sc(C)c(Cc2c(C)sc(C)c2CCl)c1CCl get here?
Solution: class 0

Exercise: Which outcome did this test record for the compound COc1ccccc1NC(=O)n1nc(N)c2ccccc21 ?
Solution: class 0

Exercise: For this compound, state the assay outcome: NC(=O)c1cc(Br)cc(C2CCCCC2)c1O
Solution: class 0

Exercise: Could you check what this test reported for Cc1nc2ccc(Nc3nc(NCCN4CCOCC4)nc(Nc4ccc(F)cc4)n3)cc2n1Cc1ccccc1 ?
Solution: class 0

Exercise: Each compound tested received a call. Report the one for Clc1ccc2[nH]cc(-c3nc(-c4c[nH]c5ncccc45)cs3)c2c1 .
Solution: class 0

Exercise: So what was the verdict on ClC(Cl)c1nc(-c2cccnc2)n2nc(-c3ccccc3)cc2n1 in this test?
Solution: class 0

Exercise: Could you kindly confirm the outcome this assay logged for Nc1nnc2cc(Cl)ccc2n1 ?
Solution: class 0
